Listed here are molecules together with their documented pKi.
- test.system: BIR3 domain of human cIAP2 (residues 236-342) (Homo sapiens (Human), UniProt Q13489)
- Sequence (Q13489 236-342): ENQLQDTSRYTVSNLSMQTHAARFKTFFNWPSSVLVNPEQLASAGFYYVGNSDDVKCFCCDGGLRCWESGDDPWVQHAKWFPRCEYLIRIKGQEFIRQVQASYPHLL
- experiment: Fluorescence polarization competitive binding to cIAP2 BIR3
- details: FP, peptide probe 5 nM, cIAP2 BIR3 10 nM, 1 hour room temperature
Just so you know, pKi here is -log10 of the concentration in molar units; reply with that number alone.

// worked examples, pKi included
1. CN[C@@H](C)C(=O)N[C@H](C(=O)N1CCc2cc(=O)n(Cc3ccc(F)cc3O)cc21)C(C)(C)C
8.64
2. CN[C@@H](C)C(=O)N[C@H](C(=O)N1CCc2c1cc(Cc1ccc(F)cc1)c(=O)n2C)C1CCCCC1
8.59
3. [2H]C([2H])([2H])N[C@@H](C)C(=O)N[C@H](C(=O)N1CC(C)(C)c2cc(=O)n(Cc3ccc(F)cc3)cc21)C(C)(C)C
7.90
4. CN[C@@H](C)C(=O)N[C@H](C(=O)N1CCc2cc(=O)n(Cc3ccc(F)cc3F)cc21)C(C)(C)C
8.74
5. CN[C@@H](C)C(=O)N[C@H](C(=O)N1CCc2[nH]c(=O)c(Cc3ccc(F)cc3)cc21)C1CCCCC1
8.57
6. CN[C@@H](C)C(=O)N[C@H](C(=O)N1CC(C)(C)c2cc(=O)n(Cc3ccc(F)cc3O)cc21)C(C)(C)C
8.00

Could you now consider this next molecule?
Kindly note the recorded pKi for [2H]C([2H])([2H])N[C@@H](C)C(=O)N[C@H](C(=O)N1CCc2cc(=O)n(Cc3ccc(F)cc3F)cc21)C(C)(C)C [Compound I-2-35] , which is 8.59
